Assay Explanation: qHTS assay for small molecule activators of the heat shock response signaling pathway - cell viability counter screen (AID 743209); further: nearly all actives have a fitted effect of over 50% in size
Stated Conditions: HSE-bla HeLa viability, CellTiter-Glo luminescence, 5 h; series mostly up to 62.6 µM
Records with an inconclusive call do not appear. Activity calls are given as the source filed them. The call rests on the fitted dose curve; in most records, active means well fitted cell-killing curve with a large enough effect in the repeat runs; inconclusive means weak or mixed curves, or effect the other way; inactive means no such curve, though single readings can be large or run the other way.
Measured Parameter: outcome

Answered examples (10):
>>> test_value("O=C(O)[C@@H]1CSCN1")
"inactive"
>>> test_value("Cc1c[nH]c(=S)[nH]c1=O")
"inactive"
>>> test_value("Cc1cn([C@@H]2O[C@H](CO)[C@@H](O)[C@@H]2F)c(=O)[nH]c1=O")
"inactive"
>>> test_value("ClC(Cl)Cl")
"inactive"
>>> test_value("CN1CCN(N)CC1")
"inactive"
>>> test_value("CCCCCCCCOC(=O)CCCCCCCCC(=O)OCCCCCCCC")
"inactive"
>>> test_value("COC(=O)/C=C(/C)N")
"inactive"
>>> test_value("Cc1ncc(CO)c(CN)c1O")
"inactive"
>>> test_value("Cc1ccc([N+](=O)[O-])cc1Cl")
"inactive"
>>> test_value("NS(=O)(=O)c1cc(-c2nn[nH]n2)c(NCc2cccs2)cc1Cl")
"inactive"

Annotate the compound CCOc1ccc2nc(N)sc2c1 with its measured outcome. inactive

Query outcome for O=C1CCC(C2CCCCC2)CC1 inactive

Please indicate outcome recorded for CCCOc1ccc2c(c1)CC[C@@H]1[C@@H]2CC[C@]2(C)C(OC)CC[C@@H]12 (some centres undefined) inactive

Look up and state reported outcome for OCCN(CCO)c1ccccc1 inactive
